These measurements were taken from patent US20190038628A1.

- Test system: Mouse BCR transgenic B cells
- TEST DESCRIPTION: Proinflammatory cytokine release of mouse BCR transgenic B cells
- Format: cell-based
- MEASUREMENT SETUP: Mouse BCR tg B cell; stimulus HEL; mean of at least two experiments; read-out: IC50 TNFα
REPORTED METRIC: pIC50
Remember, pIC50 is on a log scale: it is -log10 of the molar concentration.

The recorded pIC50 for `CCC(=O)N1CC[C@H](Nc2ncnc3c2CN(c2cnc(OC)c(C(F)(F)F)c2)CC3)C1` is 7.55
